target: GRIP2_6, Q9C0E4; assay: holdup assay; set-up: key: below the threshold = too weak to quantify, mostly under pKd 3.1 to 4; settings: plain residues with an end cap or a label only (N-terminal biotin on a linker: ado-ado)
Sequence (Q9C0E4 648-740): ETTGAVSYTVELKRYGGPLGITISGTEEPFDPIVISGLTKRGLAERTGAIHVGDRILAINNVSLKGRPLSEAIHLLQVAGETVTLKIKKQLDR

binder	pKd
PALKNGQYWV [CSPG4, Q6UVK1]	3.58
DYSNLRETDI [ADRA1D, P25100]	below the threshold
KLQNPNQSVV [TYRP1, P17643]	below the threshold
PAALPESTHM [SLC9A3, P48764]	below the threshold

Where do the numbers come from? From paper PMC9482650.
